# Subject Of Test: Mouse PGR3/ZADH2 (Mus musculus, UniProt Q8BGC4)
# Construct: GST; made in house; host or cells: E. coli
# Sequence (Q8BGC4 whole entry): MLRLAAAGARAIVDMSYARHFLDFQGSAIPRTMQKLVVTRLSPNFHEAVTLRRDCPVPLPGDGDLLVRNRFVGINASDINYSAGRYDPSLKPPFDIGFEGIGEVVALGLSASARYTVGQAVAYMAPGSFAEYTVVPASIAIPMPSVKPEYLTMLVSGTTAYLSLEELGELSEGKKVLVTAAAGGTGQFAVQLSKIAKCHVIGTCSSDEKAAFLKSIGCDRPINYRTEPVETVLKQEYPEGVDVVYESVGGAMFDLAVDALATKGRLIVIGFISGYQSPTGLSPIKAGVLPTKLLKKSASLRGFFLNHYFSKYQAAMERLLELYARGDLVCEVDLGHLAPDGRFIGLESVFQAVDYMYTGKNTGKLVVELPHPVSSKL
# Experiment Summary: PGR3/ZADH2 enzyme inhibition assay (reduction of 15-keto-PGE2, NADPH consumption)
# Type: biochemical
# Conditions: 50 μM compound, No Inhibitor = 100
Readout Label: activity at 50 µM (%)

- Compound: "COc1cc(/C=C/C(=O)c2cc(Br)ccc2O)cc(OC)c1OC [Compound 13]"
  Readout Label: "activity at 50 µM"
  Value Units: "%"
  Observed: 37.1
- Compound: "O=c1c(O)c(-c2ccccc2)oc2cc(O)cc(O)c12 [Compound 8]"
  Readout Label: "activity at 50 µM"
  Value Units: "%"
  Observed: 11.4
- Compound: "O=c1c(O)c(-c2ccc(O)c(O)c2)oc2ccccc12 [Compound 27]"
  Readout Label: "activity at 50 µM"
  Value Units: "%"
  Observed: 87.4
- Compound: "COc1cc(/C=C/C(=O)c2ccccc2O)cc(OC)c1OC [Compound 12]"
  Readout Label: "activity at 50 µM"
  Value Units: "%"
  Observed: 6.4
